Sourced from patent US7622466B2

readout: Ki (nM)
Dear colleague, please return just the value in nM, with no unit written.

Let me check: O=C(c1cc2cc(OCCCN3CCCC3)cnc2[nH]1)N1CCOCC1 [Example 5] , system UniProt Q9Y5N1, measured Ki is 25.5
